Test: Protein binding in cynomolgus monkey plasma assessed as fraction unbound incubated for 4 hrs by equilibrium dialysis based LC/MS/MS analysis
Assay type: ADME, cell-free, Macaca fascicularis
Experimental Readout: fraction unbound at 4 h

Molecule | Reading
FC(F)(F)c1nccc2cc(Nc3n[nH]c4ncccc34)ccc12 | 0.016

====

Experiment: Solubility of compound in FaSSIF
Assay type: ADME
Experimental Readout: solubility

Molecule | Reading
FC(F)(F)c1nccc2cc(Nc3n[nH]c4ncccc34)ccc12 | < 5 µg/mL

====

Assay: Unbound brain-to-plasma concentration ratio in CD-1 mouse at 1 mg/kg,iv and measured upto 24 hrs by LC-MS/MS analysis
Format: ADME, organism-based
Conditions: read-out: K(p,uu,brain)
Experimental Readout: Kp uu at 24 h

Molecule | Experimental Readout | Reading
FC(F)(F)c1nccc2cc(Nc3n[nH]c4ncccc34)ccc12 | Kp uu at 24 h | 0.16

====

Assay: Brain to plasma permeability coefficient, Kp in CD-1 mouse plasma at 1 mg/kg,iv and measured upto 24 hrs by LC-MS/MS analysis
Assay type: ADME, organism-based

Molecule | Kp at 24 h
FC(F)(F)c1nccc2cc(Nc3n[nH]c4ncccc34)ccc12 | 0.78

====

Experiment: Clearance in Beagle dog plasma at 0.5 mg/kg, iv and measured upto 24 hrs by LC-MS/MS analysis
Type: ADME, organism-based, Canis lupus familiaris

Molecule | clearance
FC(F)(F)c1nccc2cc(Nc3n[nH]c4ncccc34)ccc12 | 31.6 mL/min/kg

====

Test: Oral bioavailability in Cynomolgus monkey at 3 mg/kg and measured upto 24 hrs by LC-MS/MS analysis
Format: ADME, organism-based, Macaca fascicularis
Settings: in vivo
Experimental Readout: bioavailability (%)

Molecule | Experimental Readout | Reading
FC(F)(F)c1nccc2cc(Nc3n[nH]c4ncccc34)ccc12 | bioavailability | 31.6
